Each recorded value in this set is attributed to ChEMBL document CHEMBL4513216.

Tested on: Plasmodium berghei
methodNotes: Screen against P. berghei liver stage (PbLuc), transformed with Luciferase, at 2uM
Assay type: functional, HepG2
conditionLabel: tested at 2 uM
Among all 68,000 compounds or so, about 2,700 (4%) showed an effect of 50% or more. The sample as a whole holds a higher share of strong results than the screen did.
propertyLabel: INHIBITION (%)

compound=CCN(CC)S(=O)(=O)N1C[C@@H](O)[C@H](Oc2cccc(F)c2)C1 resultnumber=16.01
compound=O=C1CC[C@H]2[C@H](CCN2C(=O)N2CCCC2)N1Cc1ccncc1 resultnumber=-61.95
compound=Cc1cccc(CS(=O)(=O)c2nnc(N3CCOCC3)s2)c1 resultnumber=22.34
compound=CCn1cnnc1C1CCN(C(=O)Cc2ccc(OC)c(F)c2)CC1 resultnumber=77.01
compound=CSc1nc(C)cc(N2CCC(c3ncc[nH]3)CC2)n1 resultnumber=-69.92
compound=Cn1cc(-c2nc(CN3CCc4c(ncn4C)C3)cs2)cn1 resultnumber=14.06
compound=Cc1nc(C)c(C(=O)NCCNC(=O)Cc2cccc(F)c2)s1 resultnumber=30.91
compound=Cc1nc(=O)c(CC(=O)N2C[C@H]3CC[C@@H](C2)N(CC2CCC2)C3)c[nH]1 resultnumber=68.39
compound="Cc1nc(C2CCCN(C(=O)c3c[nH]c(C(C)C)n3)C2)no1 (stereo unspecified)" resultnumber=13.3
compound=COc1ncnc(N(C)C)c1NC(=O)Cc1cc(F)ccc1F resultnumber=-73.79
compound=O=S1(=O)COCCN1Cc1ccc(F)c(F)c1 resultnumber=22.52
compound=CS(=O)(=O)N[C@@H]1CCO[C@]2(CCN(C(=O)c3cnccn3)C2)C1 resultnumber=9.14
compound=Cc1nc(=O)c(CC(=O)N2C[C@H]3CC[C@@H](C2)N(CC2CCC2)C3)c(C)[nH]1 resultnumber=25.47
compound=c1ccc2cc(OCCN3CCn4c(nnc4C4CC4)C3)ccc2c1 resultnumber=18.31
compound=CN1Cc2nc[nH]c2C[C@H]1C(=O)NC1CCCCC1 resultnumber=60.6
compound="Cc1nc(C)c(C(=O)N2CCc3nnc(C4CCCCN4C)n3CC2)s1 (stereo unspecified)" resultnumber=26.44
compound=O=C(c1ccco1)N1CC[C@@H]2O[C@H](COCCN3CCCC3)CC[C@@H]21 resultnumber=15.88
compound=CC(=O)N1CCCN(C(=O)CN(C)c2ccc(Cl)cn2)CC1 resultnumber=12.29
compound=CN1CCN(C(=O)c2cc3sccc3n2Cc2ccccc2F)CC1 resultnumber=-10.78
compound="CCc1cc2c(N3CCCC(c4cc(C(N)=O)[nH]n4)C3)ncnc2s1 (stereo unspecified)" resultnumber=-126.83
compound=CN1CCN(Cc2ccc(-c3ccc(-c4ccn[nH]4)cc3)nc2)CC1 resultnumber=-35.16
compound=Cn1cccc1CN(C(=O)Cc1cccs1)C1CC1 resultnumber=51.96
compound=Cn1ccnc1CN1CCN(CC(=O)NCC(F)(F)F)CC1 resultnumber=62.13
compound=Cc1ccccc1CNC(=O)CN1CCN(Cc2nccn2C)CC1 resultnumber=-34.45
compound="CCc1nnc(CN(CC)C(=O)C2CC(=O)N(C3CC3)C2)o1 (stereo unspecified)" resultnumber=10.02
compound=CCc1noc(CN2CCC(C(=O)Nc3cnn(CC)c3)CC2)n1 resultnumber=49.9
compound=CS(=O)(=O)N[C@H]1CCO[C@]2(CCN(C(=O)c3ccccn3)C2)C1 resultnumber=36.75
compound=Cc1ccccc1NC(=O)N1CCN(Cc2noc(C3CC3)n2)CC1 resultnumber=71.93
compound=Cc1cccc(C(=O)NCc2ccccc2)n1 resultnumber=5.09
compound="COc1ccc(CCNC(=O)N2CCCC(c3nncn3C)C2)cc1 (stereo unspecified)" resultnumber=55.45
compound="Cn1ccc(C(=O)N2CCC(c3cc(CCO)n(C)n3)C2)n1 (stereo unspecified)" resultnumber=-14.3
compound=O=S1(=O)COCCN1Cc1ccc(Cl)c(Cl)c1 resultnumber=-31.95
compound=O=C(Nc1ccccc1)N1CCN(Cc2noc(C3CC3)n2)CC1 resultnumber=31.7
compound=F[C@@H]1CN(CC2CC2)C[C@@H]1OCc1nc2cnccc2[nH]1 resultnumber=25.94
compound=c1cncc(CN2CCC(c3ccc4c(c3)OCO4)CC2)c1 resultnumber=17.24
compound="O=C(O)CC(CC(=O)N(Cc1ccsc1)C1CC1)c1cccs1 (stereo unspecified)" resultnumber=1.06
compound=COc1ncnc(N(C)C)c1NC(=O)Cc1c[nH]c2ccc(F)cc12 resultnumber=62.92
compound=O=C(c1ccno1)N1CCOC[C@H](Oc2ccc(C(F)(F)F)cc2)C1 resultnumber=28.05
compound="Cc1nc(CN2CCCC(N(C)Cc3nc(CC(C)C)no3)C2)no1 (stereo unspecified)" resultnumber=23.86
compound=CCn1cc(NC(=O)C2CCN(Cc3noc(C4CC4)n3)CC2)cn1 resultnumber=66.2
compound=Cn1cnnc1C1CCN(C(=O)Cc2ccc3c(c2)OCCO3)CC1 resultnumber=5.14
compound=Cc1cc(C)n(CC(=O)N2C[C@H]3CC[C@@H](C2)N(CC2CCC2)C3)c(=O)n1 resultnumber=41.07
compound=Cc1cc(C(=O)N2CC[C@@]3(C[C@@H](NS(C)(=O)=O)CCO3)C2)no1 resultnumber=19.51
compound=Cn1ccnc1CN1CCN(CC(=O)NCc2ccccc2F)CC1 resultnumber=26.09
compound=O=C([C@@H]1Cc2[nH]cnc2CN1C(=O)NC1CCCCC1)N1CCCC1 resultnumber=17.77
compound="O=C(O)CC(CC(=O)NCCc1cccs1)c1cccs1 (stereo unspecified)" resultnumber=17.25
